Target: T1, exon 6 peptide (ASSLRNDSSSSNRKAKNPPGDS), coated on ELISA plate (not fully specified)
T1 construct: No biotin is mentioned for the ELISA coat; also called a peptide of SCF248
T1 peptide: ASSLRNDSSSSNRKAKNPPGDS
Assay: direct ELISA on coated peptide, IgG4, read at 450 nm
Catalogue of absorbance at 1 ng/mL antibody values
Express it in absorbance; write the number only.

Observe how each entry below is paired with its result.
Prompt line: Looking for the measured absorbance at 1 ng/mL antibody of B114P mutant expressed as full length IgG4 antibody (antibody, V domains shown, Full length IgG4) VH: QVQLVQSGAELKKPGSSVKISCKSSGYAFSSQWMNWVKQRPGQGLEWIGQIYPEDGDTHMNGKFKGKATLTADKSTSTAYMELSSLTSEDSAVYFCSSSNWDGSYWGQGTLVTVSS VL: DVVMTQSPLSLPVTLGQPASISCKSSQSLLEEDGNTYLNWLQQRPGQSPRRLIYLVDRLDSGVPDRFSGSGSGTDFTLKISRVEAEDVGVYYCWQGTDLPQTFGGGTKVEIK , can you help?
Response line: 0.446

Prompt line: Also, D14P mutant expressed as full length IgG4 antibody (antibody, V domains shown, Full length IgG4) VH: QVQLVQSGAELKKPGSSVKISCKSSGYAFSSQWMNWVKQRPGQGLEWIGQIYPGDDDTHYNDKFKGKATLTADKSTSTAYMELSSLTSEDSAVYFCSSSNWVGSYWGQGTLVTVSS VL: DVVMTQSPLSLPVTLGQPASISCKSSQSLLESDGNTYLNWLQQRPGQSPRRLIYLVDRLDLGVPDRFSGSGSGTDFTLKISRVEAEDVGVYYCWQGTDLPQTFGGGTKVEIK please.
Response line: 0.861

Let us move to another entry and its absorbance at 1 ng/mL antibody.
Prompt line: Looking for the measured absorbance at 1 ng/mL antibody of D44P mutant expressed as full length IgG4 antibody (antibody, V domains shown, Full length IgG4) VH: QVQLVQSGAELKKPGSSVKISCKSSGYAFSSQWMNWVKQRPGQGLEWIGQIYPEDGDIHYNGKFKGKATLTADKSTSTAYMELSSLTSEDSAVYFCSSSNWVGSYWGQGTLVTVSS VL: DVVMTQSPLSLPVTLGQPASISCKSSQSLLEEDGNTYLNWLQQRPGQSPRRLIYLVDRLDSGVPDRFSGSGSGTDFTLKISRVEAEDVGVYYCWQGSHLPQTFGGGTKVEIK , can you help?
Response line: 0.744

Ref: patent US20240182556A1
